# TARGET DESC: 5-hydroxytryptamine receptor 1B (Homo sapiens)
# CONDITION NOTES: Compound concentration 10 µM
# Description: PDSP Primary Binding target: HTR1B - Compounds are tested at 10 uM concentration, plate are incubated at room temperature in the dark for 90 minutes. Reaction are stopped by vacuum filtration onto 0.3% polyethyleneimine soaked filter mats using Filtermate harvester. Scintilation cocktail is then melted onto microwave-dried filters on a hot plate and the radio activity is counted in Microbia counter.
Can you tell me inhibition for the items I'm about to list?
Quick note: give the figure in %, leave out the unit.

Prompt line: Request body: readout inhibition, system 5-hydroxytryptamine receptor 1B (Homo sapiens), query Cc1ccccc1N1CCN(S(=O)(=O)C[C@]23CC[C@H](C[C@@H]2NC(=O)[C@@H](N)CCS(C)(=O)=O)C3(C)C)CC1 . Return the value.
Response line: 18.8

Prompt line: Request body: readout inhibition, system 5-hydroxytryptamine receptor 1B (Homo sapiens), query CCc1ccc(OCc2ccccc2C(=O)Nc2ccc3nc(C)cc(N)c3c2)cc1 . Return the value.
Response line: 46.6

Prompt line: Request body: readout inhibition, system 5-hydroxytryptamine receptor 1B (Homo sapiens), query COc1ccc(CNC(=O)c2cc(-c3cncc(Cl)c3)cnc2-c2ccccn2)nc1OC . Return the value.
Response line: -4.47

Prompt line: Request body: readout inhibition, system 5-hydroxytryptamine receptor 1B (Homo sapiens), query C[C@@H](NCCc1ccc(O)cc1)[C@@H](O)c1ccc(O)cc1 (relative stereo) . Return the value.
Response line: 2.73

Prompt line: Request body: readout inhibition, system 5-hydroxytryptamine receptor 1B (Homo sapiens), query CN1CCN(c2ccc(Nc3c4ccccc4nc4ccccc34)cc2)CC1 . Return the value.
Response line: 30.3

Prompt line: Request body: readout inhibition, system 5-hydroxytryptamine receptor 1B (Homo sapiens), query CO[C@@H]1COCC[C@@H]1N[C@@H]1CC[C@@](C(=O)N2CCc3ncc(C(F)(F)F)cc3C2)(C(C)C)C1 . Return the value.
Response line: -6.23

Prompt line: Request body: readout inhibition, system 5-hydroxytryptamine receptor 1B (Homo sapiens), query CN1CC(=O)N=C1NC(=O)Nc1cccc(Cl)c1 . Return the value.
Response line: 31.2

Prompt line: Request body: readout inhibition, system 5-hydroxytryptamine receptor 1B (Homo sapiens), query NC[C@@H]1O[C@H](C23CC4CC(CC(C4)C2)C3)Cc2c1ccc(O)c2O . Return the value.
Response line: 22.6

Prompt line: Request body: readout inhibition, system 5-hydroxytryptamine receptor 1B (Homo sapiens), query FC(F)(F)c1c(N2CCC(c3ccccc3)CC2)ccn2c(CC3CC3)nnc12 . Return the value.
Response line: -8.94

Prompt line: Request body: readout inhibition, system 5-hydroxytryptamine receptor 1B (Homo sapiens), query c1cc(CN2CCCNCCNCCCNCC2)ccc1CN1CCCNCCNCCCNCC1 . Return the value.
Response line: 4.06

Prompt line: Request body: readout inhibition, system 5-hydroxytryptamine receptor 1B (Homo sapiens), query Cc1nc(-c2ccc(-c3ccc(C(=O)N4CCc5cc6c(cc54)C4(CCN(C)CC4)CO6)cc3)c(C)c2)no1 . Return the value.
Response line: 95.1

Prompt line: Request body: readout inhibition, system 5-hydroxytryptamine receptor 1B (Homo sapiens), query Cc1cc(C)c(N)c(C#Cc2cccc(F)c2)n1 . Return the value.
Response line: 16.6

Prompt line: Request body: readout inhibition, system 5-hydroxytryptamine receptor 1B (Homo sapiens), query C[C@H](Cc1cc2c(c(C(N)=O)c1)N(CCCO)CC2)NCCOc1ccccc1OCC(F)(F)F . Return the value.
Response line: 92.3

Prompt line: Request body: readout inhibition, system 5-hydroxytryptamine receptor 1B (Homo sapiens), query CN[C@@H]1CCc2[nH]c3ccc(C(N)=O)cc3c2C1 . Return the value.
Response line: 88.2

Prompt line: Request body: readout inhibition, system 5-hydroxytryptamine receptor 1B (Homo sapiens), query COc1ccc(S(=O)(=O)c2cc(OC)ccc2S(=O)(=O)c2ccc([C@H](C)NS(C)(=O)=O)cc2)cc1 . Return the value.
Response line: -1.73

Prompt line: Request body: readout inhibition, system 5-hydroxytryptamine receptor 1B (Homo sapiens), query Cc1c(OCc2cccc(-c3ccc(C(=O)O)cc3)c2)cc2c(c1C)C(=O)C(C1CCCC1)C2 (centres undefined) . Return the value.
Response line: 4.33

Prompt line: Request body: readout inhibition, system 5-hydroxytryptamine receptor 1B (Homo sapiens), query CCc1cc2c(cc1CC)CC(NC[C@H](O)c1ccc(O)c3[nH]c(=O)ccc13)C2 . Return the value.
Response line: 34.4

Prompt line: Request body: readout inhibition, system 5-hydroxytryptamine receptor 1B (Homo sapiens), query O=S1(=O)c2cccc3cccc(c23)N1CCCN1CCN(c2ccc(F)cc2)CC1 . Return the value.
Response line: 31.4

Prompt line: Request body: readout inhibition, system 5-hydroxytryptamine receptor 1B (Homo sapiens), query Cc1cc(C)cc(-c2cnc3cc(Cl)c(-c4cccc(O)c4)cc3c2OCCCN)c1 . Return the value.
Response line: 88.2
